Recorded values, source paper PMC12371506.

STUDY TARGET: caspase-9 (Homo sapiens, UniProt P55211)
Sequence (P55211 1-315 limits assumed): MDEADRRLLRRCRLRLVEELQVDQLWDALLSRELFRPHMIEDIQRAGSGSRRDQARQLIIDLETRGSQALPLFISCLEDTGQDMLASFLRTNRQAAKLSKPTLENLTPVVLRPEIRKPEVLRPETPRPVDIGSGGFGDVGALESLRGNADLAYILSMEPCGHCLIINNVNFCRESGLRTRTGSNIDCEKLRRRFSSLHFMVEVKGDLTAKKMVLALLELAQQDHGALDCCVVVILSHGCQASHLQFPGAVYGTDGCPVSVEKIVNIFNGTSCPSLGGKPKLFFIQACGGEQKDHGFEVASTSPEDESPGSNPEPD
Sequence (P55211 331-416 limits assumed): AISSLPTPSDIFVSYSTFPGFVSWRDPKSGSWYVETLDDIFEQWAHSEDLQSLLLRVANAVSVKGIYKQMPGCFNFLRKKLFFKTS
pIC50: −log10 of the molar value. Residues, ends and D or L forms follow the SMILES beside them. *: point of attachment. Cbz = O=C(OCc1ccccc1)*; CH2F = FC*
EXPERIMENTAL READOUT: pIC50

CCO[C@@H]1OC(=O)C[C@@H]1NC(=O)[C@@H]1CCCN1C(=O)[C@@H](NC(=O)c1ccc(N)c(Cl)c1)C(C)(C)C [VX-765] :: 6.27

1. CC[C@H](C)[C@H](NC(=O)OCc1ccccc1)C(=O)N[C@@H](CCC(=O)OC)C(=O)N[C@H](C(=O)N[C@@H](CC(=O)OC)C(=O)CF)[C@@H](C)O [zIETD-FMK] (Cbz-IE(OMe)TD(OMe)-CH2F)
2. COC(=O)CC[C@H](NC(=O)[C@H](CC(C)C)NC(=O)OCc1ccccc1)C(=O)N[C@@H](Cc1c[nH]cn1)C(=O)N[C@@H](CC(=O)OC)C(=O)CF [zLEHD-FMK] (Cbz-LE(OMe)HD(OMe)-CH2F)
Query block: # compare pIC50 for 1 vs 2 ; return the one with the smaller value Reply briefly: the label of your chosen item.
Result block: 1
